- measurement-protocol: chemical genetic growth profiling, strain panel (AID 1159580);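 also: tested at 20 µM; growth read once vehicle control cultures reached saturation at 30 °C; 1 = growth at the plate median or of vehicle wells; lower values mean less growth of the strain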
- measurement-context: S. cerevisiae deletion strains, growth OD, locus YNL322C, strain KRE1, stronger effect = lower value
Screen size: about 5,500 compounds; about 2,000 (36%) were called active. Inconclusive results (about 18%) are left out. Some of the results follow.
measurement-label: normalized growth
Enter a number only.

Look up and report measured normalized growth for this entry: CC1(C)S[C@@H]2[C@H](NC(=O)C(C(=O)O)c3ccccc3)C(=O)N2[C@H]1C(=O)O (stereo partly drawn) 0.997

Look up and report measured normalized growth for this entry: CSc1cc(C(F)(F)F)cc(SC)c1SC 0.969

Look up and report measured normalized growth for this entry: Cc1ccc(Sc2nc(C)c([N+](=O)[O-])c(C)c2C#N)cc1 0.974

Look up and report measured normalized growth for this entry: CN(C)/C=C1\CSc2ccc(F)cc2C1=O 0.995

Look up and report measured normalized growth for this entry: COc1cc(C(=O)O)cc(OC)c1OC 1.02

Look up and report measured normalized growth for this entry: CC(C)Nc1nc(Cl)nc(NC(C)C)n1 1.01

Look up and report measured normalized growth for this entry: COc1nc(NC(C)C)nc(NC(C)C)n1 1

Look up and report measured normalized growth for this entry: CC(C)(C)NCC(O)COc1cccc2c1C[C@H](O)[C@H](O)C2 (stereo partly drawn) 0.992

Look up and report measured normalized growth for this entry: NC(=O)c1ccc(OCC(O)CN2CC=C(c3ccc(F)cc3)CC2)cc1 (stereo not drawn) 0.962

Look up and report measured normalized growth for this entry: Cc1ccc(Cl)cc1NC(=S)N(CCC#N)/N=C\c1ccc2c(c1)OCO2 0.989

---
Look up and report measured normalized growth for this entry: CCOC(=O)CC(SP(=S)(OC)OC)C(=O)OCC (stereo not drawn) 1.01

Look up and report measured normalized growth for this entry: CCOC(=O)/C(C#N)=C/Nc1ccc2c(c1)OCO2 0.97

Look up and report measured normalized growth for this entry: O=C(Nc1ccccc1)N1CCN(C(c2ccccc2)c2ccccc2)CC1 1

Look up and report measured normalized growth for this entry: CC(=O)CS(=O)(=O)c1ccc(Cl)cc1 1.01

Look up and report measured normalized growth for this entry: N[C@H](CCC(=O)NCS(=O)(=O)O)C(=O)O 1.01

Look up and report measured normalized growth for this entry: CNCCC(Oc1ccccc1C)c1ccccc1 (stereo not drawn) 0.96

Look up and report measured normalized growth for this entry: Cc1ccc(S(=O)(=O)N2CCC(N)=N2)cc1 1

Look up and report measured normalized growth for this entry: CC1(C)C(O)CC(=O)C2(C)C1CC(O)C1(C)C2CCC2(C)C(c3ccoc3)OC(=O)C3OC321 (stereo not drawn) 1.01
